Target: RPS6KA5 KD2 (human)
Test: radiometric filter-binding kinase assay, Kinase HotSpot
Conditions: compound 0.5 µM; ATP 10 µM
METRIC_NAME: residual activity

TEST_SMILES	RESULT
Nc1ccc2ncnc(NCCc3ccc(Oc4ccccc4)cc3)c2c1	98.3%
COc1cc2ncnc(Nc3cccc(Cl)c3)c2cc1OC	97.8%
Nc1ncnc2c1c(-c1ccc(Oc3ccccc3)cc1)cn2C1CCCC1	90.5%
Cc1ccc(NC2=CC(=O)c3sc(C)nc3C2=O)cc1	87.7%
c1ccc(-c2n[nH]cc2-c2ccnc3ccccc23)nc1	102%
Cc1ccc(Nc2nccc(N(C)c3ccc4c(C)n(C)nc4c3)n2)cc1S(N)(=O)=O	101%
O=C1NC(=O)C(c2cn(CCCn3ccnc3)c3ccccc23)=C1Nc1ccccc1	36.9%
CC#CC(=O)Nc1cc2c(Nc3ccc(F)c(Cl)c3)ncnc2cn1	103%
CCN(CC)CCNC(=O)c1c(C)[nH]c(/C=C2\C(=O)Nc3ccc(F)cc32)c1C	60.1%
Cc1[nH]c(/C=C2\C(=O)Nc3ccc(S(=O)(=O)N(C)c4cccc(Cl)c4)cc32)c(C)c1C(=O)N1CCN(C)CC1	94.1%
O=S(=O)(c1cccc2cnccc12)N1CCCNCC1	62.1%

---

Biological target: UniProt Q8N5S9
Sequence (Q8N5S9 whole entry, looked up): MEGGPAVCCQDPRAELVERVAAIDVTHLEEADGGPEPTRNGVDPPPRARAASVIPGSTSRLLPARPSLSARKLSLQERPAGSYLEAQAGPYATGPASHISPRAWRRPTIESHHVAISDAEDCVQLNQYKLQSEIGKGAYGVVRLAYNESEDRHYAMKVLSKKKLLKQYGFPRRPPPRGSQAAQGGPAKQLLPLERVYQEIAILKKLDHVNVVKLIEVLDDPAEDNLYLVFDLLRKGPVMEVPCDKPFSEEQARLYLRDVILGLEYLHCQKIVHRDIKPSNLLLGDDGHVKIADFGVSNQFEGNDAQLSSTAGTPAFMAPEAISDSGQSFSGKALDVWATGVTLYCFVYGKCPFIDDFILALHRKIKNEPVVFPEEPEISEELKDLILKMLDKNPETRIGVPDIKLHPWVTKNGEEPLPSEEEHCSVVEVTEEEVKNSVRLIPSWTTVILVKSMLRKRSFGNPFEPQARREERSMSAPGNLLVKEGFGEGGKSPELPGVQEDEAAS
Assay: radiometric filter-binding kinase assay, Kinase HotSpot
Settings: compound 0.5 µM; ATP 10 µM
Each entry below carries its recorded residual activity.
METRIC_NAME: residual activity (%)

TEST_SMILES	QUANTITATIVE_RESULT
Cc1ccc(S(=O)(=O)/C=C/C#N)cc1	114
CCOC(=O)c1c(C)[nH]c(/C=C2\C(=O)Nc3ccccc32)c1C	95.3
O=C1NC(=O)/C(=C/c2ccc3c(c2)OC(F)(F)O3)S1	86
O=C(Nc1cccc(Nc2nccc(Nc3cccc(C(F)(F)F)c3)n2)c1)C1CC1	97.9
N#CC(C#N)=C(N)/C(C#N)=C/c1ccc(O)cc1	104
Nc1ccc2ncnc(NCCc3ccc(Oc4ccccc4)cc3)c2c1	119
O=C1Nc2ccc(Cl)cc2/C1=C/c1cc(Cl)c(O)c(Cl)c1	52.5
CCCC(=O)Oc1ccc2[nH]c(C(=O)c3cc4ccccc4[nH]3)cc2c1	106
CC(=O)c1ccc(N2CCOCC2)cc1O	124
Nc1cccc(-c2cc3c(Oc4cccc(O)c4)ncnc3[nH]2)c1	113
CC[n+]1c(/C=C/N(C)c2ccccc2)n(-c2ccccc2)c2ccc(-c3nc4ccccc4s3)cc21	115
Cc1ccc(Nc2nccc(N(C)c3ccc4c(C)n(C)nc4c3)n2)cc1S(N)(=O)=O	72
CC#CC(=O)Nc1cc2c(Nc3ccc(F)c(Cl)c3)ncnc2cn1	124
CCN(CC)CCNC(=O)c1c(C)[nH]c(/C=C2\C(=O)Nc3ccc(F)cc32)c1C	52.1
CCN(CC)C(=O)c1ccc(Nc2nc(OCC3CCCCC3)c3nc[nH]c3n2)cc1	96.8
COc1cc2ncnc(Nc3cccc(Cl)c3)c2cc1OC	92.2
CNc1cc2c(Nc3cccc(Br)c3)ncnc2cn1	92.6
Cc1ccc(NC2=CC(=O)c3sc(C)nc3C2=O)cc1	108
CCN(CC)CCNC(=O)c1c(C)[nH]c(/C=C2\C(=O)Nc3ccc(Cl)cc32)c1C	47.7
CCC(=O)Nc1ccc2ncnc(Nc3cccc(Br)c3)c2c1	99.8
Cc1[nH]c(/C=C2\C(=O)Nc3ccc(S(=O)(=O)N(C)c4cccc(Cl)c4)cc32)c(C)c1C(=O)N1CCN(C)CC1	93.3
Nc1ncnc2[nH]nc(Nc3ccc(F)cc3)c12	101
c1ccc(-c2n[nH]c3c2oc2ccccc23)cc1	97
c1ccc(-c2n[nH]cc2-c2ccnc3ccccc23)nc1	109
O=c1cc(N2CCOCC2)oc2c1ccc1ccccc12	112
O=C1NC(=O)c2c1c1c3ccccc3n3c1c1c2c2ccccc2n1C1CCC3O1	27.2
O=S(=O)(c1cccc2cnccc12)N1CCCNCC1	108

---

Target: MAP3K5 (human) (UniProt Q99683)
Sequence (Q99683 whole entry, looked up): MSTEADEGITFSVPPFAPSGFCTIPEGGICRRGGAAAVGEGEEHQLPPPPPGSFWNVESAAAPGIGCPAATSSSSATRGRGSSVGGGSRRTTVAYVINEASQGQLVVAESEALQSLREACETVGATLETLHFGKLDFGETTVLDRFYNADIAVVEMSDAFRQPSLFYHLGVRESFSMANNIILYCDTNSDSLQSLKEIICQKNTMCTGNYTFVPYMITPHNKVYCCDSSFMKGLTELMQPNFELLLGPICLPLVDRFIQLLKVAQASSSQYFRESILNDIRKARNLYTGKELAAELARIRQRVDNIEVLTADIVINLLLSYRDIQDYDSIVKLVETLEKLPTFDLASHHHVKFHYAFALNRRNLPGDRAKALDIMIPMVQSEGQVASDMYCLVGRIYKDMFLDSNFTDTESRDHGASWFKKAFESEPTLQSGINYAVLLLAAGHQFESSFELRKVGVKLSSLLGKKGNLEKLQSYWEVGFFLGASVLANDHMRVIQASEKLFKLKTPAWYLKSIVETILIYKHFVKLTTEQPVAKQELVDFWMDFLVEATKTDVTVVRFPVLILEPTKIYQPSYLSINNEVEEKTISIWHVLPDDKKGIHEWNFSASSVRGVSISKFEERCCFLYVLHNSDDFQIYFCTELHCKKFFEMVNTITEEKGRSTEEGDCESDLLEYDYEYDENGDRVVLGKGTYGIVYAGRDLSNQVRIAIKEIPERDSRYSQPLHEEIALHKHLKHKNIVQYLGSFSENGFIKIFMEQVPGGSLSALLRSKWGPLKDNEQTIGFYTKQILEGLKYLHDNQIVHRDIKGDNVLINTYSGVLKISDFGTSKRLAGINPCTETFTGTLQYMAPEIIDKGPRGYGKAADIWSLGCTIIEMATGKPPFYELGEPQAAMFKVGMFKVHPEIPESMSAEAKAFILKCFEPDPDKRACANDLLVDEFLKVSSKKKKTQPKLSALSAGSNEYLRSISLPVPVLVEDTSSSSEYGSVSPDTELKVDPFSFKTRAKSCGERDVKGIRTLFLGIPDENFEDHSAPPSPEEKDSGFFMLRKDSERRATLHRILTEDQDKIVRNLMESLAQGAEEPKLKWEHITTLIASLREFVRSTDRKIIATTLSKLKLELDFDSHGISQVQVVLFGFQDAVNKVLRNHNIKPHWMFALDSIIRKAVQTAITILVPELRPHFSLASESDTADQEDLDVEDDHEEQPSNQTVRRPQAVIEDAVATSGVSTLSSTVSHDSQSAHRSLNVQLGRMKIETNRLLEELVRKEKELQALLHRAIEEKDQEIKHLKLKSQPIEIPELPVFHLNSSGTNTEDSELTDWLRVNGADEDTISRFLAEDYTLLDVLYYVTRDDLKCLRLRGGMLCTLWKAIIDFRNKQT
Test: radiometric filter-binding kinase assay, Kinase HotSpot
Settings: compound 0.5 µM; ATP 10 µM

TEST_SMILES	UNIT_NAME	residual activity
Nc1ncnc2c1c(-c1ccc(Oc3ccccc3)cc1)cn2C1CCCC1	%	99.1
CNc1cc2c(Nc3cccc(Br)c3)ncnc2cn1	%	94.6
COc1ccc2c(c[n+](C)c3c4cc5c(cc4ccc23)OCO5)c1OC	%	114
CCN(CC)CCNC(=O)c1c(C)[nH]c(/C=C2\C(=O)Nc3ccc(Cl)cc32)c1C	%	98.1
Cc1[nH]c(/C=C2\C(=O)Nc3ccc(S(=O)(=O)N(C)c4cccc(Cl)c4)cc32)c(C)c1C(=O)N1CCN(C)CC1	%	105
c1ccc(-c2n[nH]cc2-c2ccnc3ccccc23)nc1	%	105
CCC(=O)Nc1ccc2ncnc(Nc3cccc(Br)c3)c2c1	%	102
CC#CC(=O)Nc1cc2c(Nc3ccc(F)c(Cl)c3)ncnc2cn1	%	98.9
O=c1cc(N2CCOCC2)oc2c1ccc1ccccc12	%	98.2
O=C1NC(=O)c2c1c1c3ccccc3n3c1c1c2c2ccccc2n1C1CCC3O1	%	56.2
COc1cc2ncnc(Nc3cccc(Cl)c3)c2cc1OC	%	106
Nc1ncnc2[nH]nc(Nc3ccc(F)cc3)c12	%	111
Cc1ccc(NC2=CC(=O)c3sc(C)nc3C2=O)cc1	%	119
O=C(Nc1cccc(Nc2nccc(Nc3cccc(C(F)(F)F)c3)n2)c1)C1CC1	%	111

---

Target: CDK1 CCNA2 (human) (UniProt P06493+P20248)
Sequence (P06493 whole entry, looked up): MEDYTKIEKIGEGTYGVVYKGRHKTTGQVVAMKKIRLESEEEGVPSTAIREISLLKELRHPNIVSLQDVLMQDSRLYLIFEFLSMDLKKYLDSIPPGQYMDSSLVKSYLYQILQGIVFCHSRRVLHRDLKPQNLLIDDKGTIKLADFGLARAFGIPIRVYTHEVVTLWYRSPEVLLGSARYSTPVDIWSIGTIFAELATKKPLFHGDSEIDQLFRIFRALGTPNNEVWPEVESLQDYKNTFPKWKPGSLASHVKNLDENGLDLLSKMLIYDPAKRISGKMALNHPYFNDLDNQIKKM
Sequence (P20248 whole entry, looked up): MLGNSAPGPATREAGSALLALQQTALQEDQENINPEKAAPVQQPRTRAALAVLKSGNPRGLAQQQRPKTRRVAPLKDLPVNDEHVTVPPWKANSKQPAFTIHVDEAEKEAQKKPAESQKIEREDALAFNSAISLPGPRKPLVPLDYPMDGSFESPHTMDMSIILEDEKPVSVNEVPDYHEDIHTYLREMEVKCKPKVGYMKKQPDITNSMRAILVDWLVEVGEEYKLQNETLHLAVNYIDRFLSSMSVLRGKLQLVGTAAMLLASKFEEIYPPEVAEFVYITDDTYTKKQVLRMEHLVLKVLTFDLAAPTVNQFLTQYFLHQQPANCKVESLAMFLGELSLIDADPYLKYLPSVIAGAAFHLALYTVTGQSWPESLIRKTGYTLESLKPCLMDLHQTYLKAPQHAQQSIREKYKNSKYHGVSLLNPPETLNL
Test: radiometric filter-binding kinase assay, Kinase HotSpot
Conditions: compound 0.5 µM; ATP 10 µM
METRIC_NAME: residual activity (%)

COMPOUND	UNIT_NAME	QUANTITATIVE_RESULT
Oc1cccc(-c2nc(N3CCOCC3)c3oc4ncccc4c3n2)c1	%	84.4
CC(=O)c1ccc(N2CCOCC2)cc1O	%	99.8
CO[C@H]1CC2CC[C@@H](C)[C@@](O)(O2)C(=O)C(=O)N2CCCC[C@H]2C(=O)OC([C@H](C)C[C@@H]2CC[C@@H](O)[C@H](OC)C2)CC(=O)[C@H](C)/C=C(\C)[C@@H](O)[C@@H](OC)C(=O)[C@H](C)C[C@H](C)/C=C/C=C/C=C/1C (stereo partly drawn)	%	91.9
c1ccc(-c2n[nH]c3c2oc2ccccc23)cc1	%	94.1
CCN(CC)CCNC(=O)c1c(C)[nH]c(/C=C2\C(=O)Nc3ccc(Cl)cc32)c1C	%	87.5
O=C1Nc2ccc(Cl)cc2/C1=C/c1cc(Cl)c(O)c(Cl)c1	%	91.9
COC[C@H]1OC(=O)c2coc3c2[C@@]1(C)C1=C(C3=O)[C@@H]2CCC(=O)[C@@]2(C)C[C@H]1OC(C)=O	%	97
CCN(CC)C(=O)c1ccc(Nc2nc(OCC3CCCCC3)c3nc[nH]c3n2)cc1	%	95.2

---

Molecular target: MET (human) (UniProt P08581)
Sequence (P08581 whole entry, looked up): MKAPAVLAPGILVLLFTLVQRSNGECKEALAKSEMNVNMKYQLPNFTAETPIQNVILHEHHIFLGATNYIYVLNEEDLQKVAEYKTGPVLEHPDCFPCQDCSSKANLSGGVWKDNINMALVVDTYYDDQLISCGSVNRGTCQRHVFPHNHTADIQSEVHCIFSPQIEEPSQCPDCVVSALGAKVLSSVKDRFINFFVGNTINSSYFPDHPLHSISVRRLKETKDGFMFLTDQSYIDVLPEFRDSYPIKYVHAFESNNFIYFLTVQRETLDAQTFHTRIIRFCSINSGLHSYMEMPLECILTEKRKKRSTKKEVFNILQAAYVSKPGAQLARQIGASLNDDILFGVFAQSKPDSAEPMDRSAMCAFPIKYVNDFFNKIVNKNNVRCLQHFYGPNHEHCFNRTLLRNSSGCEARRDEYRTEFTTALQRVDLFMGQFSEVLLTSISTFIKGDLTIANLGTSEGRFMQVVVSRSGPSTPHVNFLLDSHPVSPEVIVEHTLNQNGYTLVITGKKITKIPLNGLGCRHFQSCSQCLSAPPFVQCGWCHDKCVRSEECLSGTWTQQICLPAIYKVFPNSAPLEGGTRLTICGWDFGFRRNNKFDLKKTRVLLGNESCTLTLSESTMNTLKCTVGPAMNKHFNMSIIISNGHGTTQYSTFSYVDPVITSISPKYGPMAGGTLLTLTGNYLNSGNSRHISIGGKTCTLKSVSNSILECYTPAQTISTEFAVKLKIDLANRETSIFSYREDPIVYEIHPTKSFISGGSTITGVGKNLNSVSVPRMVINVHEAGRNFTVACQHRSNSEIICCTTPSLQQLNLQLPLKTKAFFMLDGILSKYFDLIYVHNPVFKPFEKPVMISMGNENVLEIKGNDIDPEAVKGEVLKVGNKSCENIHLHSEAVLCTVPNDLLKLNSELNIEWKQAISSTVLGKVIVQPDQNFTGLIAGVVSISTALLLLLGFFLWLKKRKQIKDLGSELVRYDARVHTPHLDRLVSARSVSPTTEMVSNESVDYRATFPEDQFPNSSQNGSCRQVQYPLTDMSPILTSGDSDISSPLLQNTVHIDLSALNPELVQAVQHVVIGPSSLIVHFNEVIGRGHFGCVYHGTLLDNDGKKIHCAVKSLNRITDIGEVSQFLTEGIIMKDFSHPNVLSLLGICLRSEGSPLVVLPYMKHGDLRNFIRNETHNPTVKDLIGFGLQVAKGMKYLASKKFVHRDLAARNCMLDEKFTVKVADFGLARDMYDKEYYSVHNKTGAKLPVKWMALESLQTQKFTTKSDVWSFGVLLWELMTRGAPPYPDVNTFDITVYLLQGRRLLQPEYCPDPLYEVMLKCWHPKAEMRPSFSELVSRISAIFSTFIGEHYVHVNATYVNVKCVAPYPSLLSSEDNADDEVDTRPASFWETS
Assay: radiometric filter-binding kinase assay, Kinase HotSpot
Settings: compound 0.5 µM; ATP 10 µM

COMPOUND	residual activity [%]
Cc1ccc(S(=O)(=O)/C=C/C#N)cc1	94.7
O=C1NC(=O)C(c2cn(CCCn3ccnc3)c3ccccc23)=C1Nc1ccccc1	100
N#CC(C#N)=C(N)/C(C#N)=C/c1ccc(O)cc1	117
c1ccc(-c2n[nH]cc2-c2ccnc3ccccc23)nc1	94.1
O=C(Nc1cccc(Nc2nccc(Nc3cccc(C(F)(F)F)c3)n2)c1)C1CC1	87.7
Nc1ncnc2c1c(-c1ccc(Oc3ccccc3)cc1)cn2C1CCCC1	110
CO[C@H]1CC2CC[C@@H](C)[C@@](O)(O2)C(=O)C(=O)N2CCCC[C@H]2C(=O)OC([C@H](C)C[C@@H]2CC[C@@H](O)[C@H](OC)C2)CC(=O)[C@H](C)/C=C(\C)[C@@H](O)[C@@H](OC)C(=O)[C@H](C)C[C@H](C)/C=C/C=C/C=C/1C (some centres undefined)	98.1
COc1cc2ncnc(Nc3cccc(Cl)c3)c2cc1OC	75.5
CCOC(=O)c1c(C)[nH]c(/C=C2\C(=O)Nc3ccccc32)c1C	87.4
O=C1Nc2ccc(Cl)cc2/C1=C/c1cc(Cl)c(O)c(Cl)c1	96.4
Cc1ccc(NC2=CC(=O)c3sc(C)nc3C2=O)cc1	99.7
Nc1cccc(-c2cc3c(Oc4cccc(O)c4)ncnc3[nH]2)c1	110
CNc1cc2c(Nc3cccc(Br)c3)ncnc2cn1	106
O=C1NC(=O)c2c1c1c3ccccc3n3c1c1c2c2ccccc2n1C1CCC3O1	76.9
Nc1ncnc2[nH]nc(Nc3ccc(F)cc3)c12	124
Nc1ccc2ncnc(NCCc3ccc(Oc4ccccc4)cc3)c2c1	99.9
CC#CC(=O)Nc1cc2c(Nc3ccc(F)c(Cl)c3)ncnc2cn1	96.3
O=C1NC(=O)/C(=C/c2ccc3c(c2)OC(F)(F)O3)S1	96.2
CCCC(=O)Oc1ccc2[nH]c(C(=O)c3cc4ccccc4[nH]3)cc2c1	103
Oc1cccc(-c2nc(N3CCOCC3)c3oc4ncccc4c3n2)c1	97.8
CCN(CC)CCNC(=O)c1c(C)[nH]c(/C=C2\C(=O)Nc3ccc(Cl)cc32)c1C	77
O=c1cc(N2CCOCC2)oc2c1ccc1ccccc12	161
CCC(=O)Nc1ccc2ncnc(Nc3cccc(Br)c3)c2c1	103
CC(C)N(CCC(=O)c1ccc2ccccc2c1)Cc1ccccc1	110
COc1ccc(COc2ccc(Cc3cnc(N)nc3N)cc2OC)cc1	76.1
CCN(CC)C(=O)c1ccc(Nc2nc(OCC3CCCCC3)c3nc[nH]c3n2)cc1	85.3
COc1ccc2c(c[n+](C)c3c4cc5c(cc4ccc23)OCO5)c1OC	94.7
CC[n+]1c(/C=C/N(C)c2ccccc2)n(-c2ccccc2)c2ccc(-c3nc4ccccc4s3)cc21	108
Cc1[nH]c(/C=C2\C(=O)Nc3ccc(S(=O)(=O)N(C)c4cccc(Cl)c4)cc32)c(C)c1C(=O)N1CCN(C)CC1	1.18
CC(=O)c1ccc(N2CCOCC2)cc1O	122
CCN(CC)CCNC(=O)c1c(C)[nH]c(/C=C2\C(=O)Nc3ccc(F)cc32)c1C	91
N#C/C(=C(/N)Sc1ccc(N)cc1)c1ccccc1C(F)(F)F	77.2
c1ccc(-c2n[nH]c3c2oc2ccccc23)cc1	98.4
CNC(=O)c1cc(Oc2ccc(NC(=O)Nc3ccc(Cl)c(C(F)(F)F)c3)cc2)ccn1	105
